Provenance of the data: PubChem BioAssay (NCI)

This listing pairs molecules with measured growth inhibition.
run_description: NCI Yeast Anticancer Drug Screen. Data for the rad18 strain (AID 177)
particulars: S. cerevisiae rad18 mutant growth inhibition; at 1.2 µM; hits give high values
Method: Growth inhibition of yeast strains with defined genetic alterations is measured as a screen for potential anti-cancer activity. Selected strains with alterations in DNA damage repair or cell cycle control were exposed to compounds and growth inhibition was measured relative to vehicle treated controls. The strain used in this assay is rad18
About 79,000 compounds went through this panel and 15% of them were active in at least one assay; those are over-represented in the sample as a whole. Calls of active or inactive are those of the source. Cut-off read from the data, not from the text of the source: active = growth inhibition above about 70%; inactive = the rest.

// below: answered molecules
O=C(/C=N/O)Nc1cc(Cl)c(Cl)cc1Cl
-28% (inactive)
CCc1[nH]nc(C(N)=O)c1N=NN(C)C
1% (inactive)
CCCCOC(=O)CSSCC(=O)OCCCC
-2% (inactive)
Clc1c(Cl)c(Cl)c2n[nH]nc2c1Cl
-29% (inactive)

From here, focus on the item given below.
q: Output growth inhibition of CCc1nc(N)nc(N)c1-c1ccc(NCCCCCCN)c([N+](=O)[O-])c1
a: -4% (inactive)

###

run_description: NCI Yeast Anticancer Drug Screen. Data for the cln2 rad14 strain (AID 165);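 note: 0% = growth equal to vehicle treated cultures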
particulars: S. cerevisiae cln2 rad14 strain, at 50.0 µM (retest, dose inferred, filed as 5.0), hits give high values
This is part of a sample that, as a whole, favours compounds with a hit. Of some 79,000 tested, about 15% had one in any assay.
Binned growth inhibition; ranges: low interval (below 20%), middle interval (20% to below 90%), high interval (90% or more)

C=C1N(C)c2ccc(Cl)cc2C1(C)C
middle interval
COc1cc(/C=C/c2sc3ccccc3[n+]2C)ccc1N(C)C
low interval
NNC(=S)Nc1cccc(Cl)c1
high interval
CC1C(C#N)(C#N)C(C#N)=C(N)C1(Cl)[N+](=O)[O-] (configuration not stated)
middle interval
S=C1SCN(CCc2ccccc2)CN1CCc1ccccc1
low interval
N#C/C(=C\c1ccccc1)c1ccccc1F
low interval
Cc1cc(Cl)ccc1NC(=O)/C(Cl)=C1/Sc2ccccc2NC1=O
middle interval
O=Nn1c2ccccc2c2ccccc21
middle interval

q: Category lookup for the compound Cc1cc(C(C)(C)CC(C)(C)C)cc(O)c1O
a: high interval

q: Category lookup for the compound O=C(/C=N/O)Nc1cc(Cl)c(Cl)cc1Cl
a: middle interval

q: Category lookup for the compound COc1ccc(/C=C(\NC(=O)c2ccccc2)C(=O)NN(C)c2ccnc3cc(Cl)ccc23)cc1OC
a: low interval

q: Category lookup for the compound CCCCCC#CCOC(=O)C(=[N+]=[N-])P(=O)(c1ccccc1)c1ccccc1
a: high interval

###

run_description: NCI Yeast Anticancer Drug Screen. Data for the mlh1 strain (AID 171);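 note: 0% = growth of vehicle-treated control cultures of the same strain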
particulars: S. cerevisiae mlh1 strain growth inhibition; at 100.0 µM
The panel holds about 79,000 compounds, 15% with a hit somewhere; the sample as a whole holds those more often. Calls of active or inactive are those of the source. Rule as the data show it: active = growth inhibition above about 70%; inactive = the rest.
Respond only with the outcome that fits, drawn from active, inactive

COc1cccc(C(c2cc3c(cc2O)OCO3)N2CCOCC2)c1OC (stereo not given)
inactive

q: Please indicate how the test categorized NNC(=S)Nc1cccc2ccccc12 .
a: inactive

q: Please indicate how the test categorized NC(=O)N1c2ccccc2C=Cc2ccccc21 .
a: inactive

q: Please indicate how the test categorized Cc1c2cc[n+](CCN3CCCCC3)cc2c(C)c2c1[nH]c1ccc(O)cc12 .
a: active

q: Please indicate how the test categorized Cc1cc(N=C2C=CC(=[N+](C)C)C=C2)c(N)cc1N .
a: inactive

q: Please indicate how the test categorized Cc1cccc(/C=N\NC(=S)N2CCCCC2)n1 .
a: active

q: Please indicate how the test categorized COc1cc(N)ccc1Nc1c2ccccc2nc2ccccc12 .
a: active

q: Please indicate how the test categorized CCN1/C(=C/c2ccc3ccccc3[n+]2CC)C=Cc2ccccc21 .
a: active

q: Please indicate how the test categorized C/C(=N\NC(=S)NNC(=S)N(C)c1ccccc1)c1ccccn1 .
a: active

q: Please indicate how the test categorized O=C1C=CC(=O)N1c1ccc(I)cc1 .
a: active

q: Please indicate how the test categorized NC(N)=N/N=C/c1cc(Cl)cc(Cl)c1O .
a: active

###

This listing pairs compounds with measured growth inhibition.
run_description: NCI Yeast Anticancer Drug Screen. Data for the bub3 strain (AID 167)
particulars: S. cerevisiae bub3 mutant strain, at 11.0 µM, hits give high values
The panel holds about 79,000 compounds, 15% with a hit somewhere; the sample as a whole holds those more often.
A number alone suffices; assume %.

Cc1cccc2c1N=C(C(F)(F)F)CC2=O
-1
Nc1nc2c(c(=O)[nH]1)NC(CCNc1ccc(C(=O)O)cc1)CN2 (stereo not given)
0
COc1ccc(N)c2c1C(=O)c1ccccc1C2=O
-32
CN[C@@H]1C[C@H]2O[C@@](C)([C@@H]1OC)n1c3ccccc3c3c4c(c5c6ccccc6n2c5c31)C(=O)N[C@@H]4O
13
CN(C)CC1CCCc2ccccc2C1=O (stereo not given)
19
COc1cc([C@@H]2c3cc4c(cc3[C@@H](OC3OC5COC(C)OC5C(O)C3O)[C@H]3COC(=O)[C@H]23)OCO4)cc(OC)c1O (stereo not given in full)
0

From here, focus on the item given below.
q: Output growth inhibition of CC[C@@]1(OC(=O)CN(C)C)C(=O)OCc2c1cc1n(c2=O)Cc2cc3c(N)cccc3nc2-1
a: -3

###

This listing pairs compounds with measured growth inhibition.
run_description: NCI Yeast Anticancer Drug Screen. Data for the mgt1 strain (AID 153)
particulars: S. cerevisiae mgt1 mutant growth inhibition; at 3.7 µM; hits give high values
This is part of a sample that, as a whole, favours compounds with a hit. Of some 79,000 tested, about 15% had one in any assay. Calls of active or inactive are those of the source. Rule as the data show it: active = growth inhibition above about 70%; inactive = the rest.

// below: answered compounds
NNC(=S)Nc1cccc(Cl)c1
-19% (inactive)
N#C/C(=C1C=C(Br)/C(=N\O)C=C\1Cl)c1cccc2ccccc12
4% (inactive)
CCC(=O)Oc1ccc(/C=N/NC(N)=S)nc1
-3% (inactive)
CN(CC(=O)O)c1ccc(/C=C/c2ccnc3ccccc23)cc1
0% (inactive)
O=C(/C=C/c1cccc2ccccc12)c1ccc(Cl)cc1
11% (inactive)

q: Output growth inhibition of Nc1nc(N)c2cc(Sc3ccc4ccccc4c3)ccc2n1
a: 12% (inactive)

q: Output growth inhibition of CCN(CC)CCNC(=O)c1nn(-c2ccc(Cl)cc2)c2c1CCc1cc(OC)ccc1-2
a: 10% (inactive)

q: Output growth inhibition of Nc1ccc2c(=S)c3ccccc3[nH]c2c1
a: 1% (inactive)

q: Output growth inhibition of O=Nc1ccc(Nc2ccccc2)cc1
a: -60% (inactive)

q: Output growth inhibition of Cc1cc(O)c2c(c1)C(=O)C=C(Br)C2=O
a: 21% (inactive)

q: Output growth inhibition of CN(C)CCNc1cccc2sc3ccc(O)cc3c(=O)c12
a: -5% (inactive)

q: Output growth inhibition of CCOC(=O)[C@]1(Br)CC[C@@]1(Br)C(=O)OCC
a: -23% (inactive)

###

run_description: NCI Yeast Anticancer Drug Screen. Data for the wt1 strain (AID 149);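 note: 0% = growth of vehicle-treated wt1 cultures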
particulars: S. cerevisiae wt1 strain (SPY 50644) growth inhibition; at 11.0 µM
This is part of a sample that, as a whole, favours compounds with a hit. Of some 79,000 tested, about 15% had one in any assay. Active and inactive are the calls of the source. Rule as the data show it: active = growth inhibition above about 70%; inactive = the rest.
Respond only with the outcome that fits, drawn from Y (active), N (inactive)

Below, 4 compounds whose answers are already recorded.
CCOc1ccc(C(=O)CCC(=O)O)c(C)c1
N
S=P(N1CC1)(N1CC1)N1CC1
N
Clc1cc(-c2ccccc2)nc2ccccc12
N
Nc1ccc2c(=S)c3ccccc3[nH]c2c1
N

q: Please indicate how the test categorized Cn1c2nc3ccccc3c-2nc2ccccc21 .
a: Y

q: Please indicate how the test categorized CC1=CC2C(C(C)C)CC1C1C(=O)OC(=O)C21 (centres undefined) .
a: N

q: Please indicate how the test categorized NC(N)=N/N=C/c1cc(Cl)cc(Cl)c1O .
a: N

###

run_description: NCI Yeast Anticancer Drug Screen. Data for the bub3 strain (AID 167)
particulars: S. cerevisiae bub3 mutant strain, at 100.0 µM
This is part of a sample that, as a whole, favours compounds with a hit. Of some 79,000 tested, about 15% had one in any assay. Active and inactive are the calls of the source. Cut-off read from the data, not from the text of the source: active = growth inhibition above about 70%; inactive = the rest.
Respond only with the outcome that fits, drawn from active, inactive

Below, 2 compounds whose answers are already recorded.
COC(=O)c1ccc2c(c1)Cc1ccccc1-2
inactive
On1cnc(=S)c2[nH]cnc21
inactive

q: Please indicate how the test categorized O=C1c2cccc3cc([N+](=O)[O-])cc(c23)C(=O)N1CCN1CCCC1 .
a: inactive

q: Please indicate how the test categorized O=C1c2ccccc2C(=O)c2cc(S(=O)(=O)Nc3ccccc3)ccc21 .
a: inactive

q: Please indicate how the test categorized O=[N+]([O-])c1cccc2nc3ccccc3c(NCCc3cccc[n+]3[O-])c12 .
a: inactive

q: Please indicate how the test categorized Cn1ncc2cc3c(Nc4ccc(Cl)cc4)cccc3nc21 .
a: inactive

q: Please indicate how the test categorized O=C1CSC(=S)N1Cc1ccc(Cl)cc1Cl .
a: active

q: Please indicate how the test categorized CN(C)CCN1C(=O)c2cccc3cc([N+](=O)[O-])cc(c23)C1=O .
a: inactive

q: Please indicate how the test categorized COc1cc(NCc2ccc3nc(N)nc(N)c3c2C)cc(OC)c1OC .
a: inactive

q: Please indicate how the test categorized COc1ccc(/C=C2\SC(=S)N(C=C3C(=O)NC(=S)NC3=O)C2=O)cc1OC .
a: inactive
